Below, each entry is listed alongside its reported EC50.
tested_on: DYRK1A kinase (Homo sapiens (Human))
assay_method_text: DYRK1A kinase assay (Ser/Thr 18 peptide Z-lyte, FRET)
stated_conditions: DYRK1A kinase; method text calls the value IC50
// units = nM; emit number, no label

**Query** Specify measured EC50 for CN[C@H]1CCN(C(=O)Nc2cc3cc(-c4nnc(C)s4)ccc3cn2)C[C@@H]1F .
**Result** 18

**Query** Give a short answer stating reported EC50 for CN1CC2CCC(C1)N2C(=O)Nc1cc2cc(-c3cnn(C)c3)ccc2cn1 .
**Result** 7

**Query** Please report EC50 for the following compound: Cc1ncc(-c2ccc3cnc(NC(=O)N4CC[C@H](NC(C)C)[C@@H](F)C4)cc3c2)o1
**Result** 38

**Query** Could you please provide reported EC50 for Cc1nnc(-c2ccc3cnc(NC(=O)N[C@H]4CCN(C)C[C@@H]4F)cc3c2)s1 ? Thanks!
**Result** 6

**Query** Hello, please tell me recorded EC50 for this one: CN1CCC(N(C)C(=O)Nc2cc3cc(-c4cn(C)nn4)cc(F)c3cn2)CC1
**Result** 12

* * *

tested_on: DYRK1A kinase (Homo sapiens (Human))
assay_method_text: DYRK1A kinase assay (Ser/Thr 18 peptide Z-lyte, FRET)
stated_conditions: DYRK1A kinase; method text calls the value IC50
recorded_metric: pEC50
Keep in mind that pEC50 stands for -log10 of concentration in molar terms.

The following molecules have reported results that may help.
INSERT INTO measurements (molecule, recorded_metric, value_reported) VALUES
  ('Cc1nnc(-c2ccc3cnc(NC(=O)N4CCN(C)CC4)cc3c2)s1 [Compound 62]', 'pEC50', 8.15),
  ('Cc1ncc(-c2ccc3cnc(NC(=O)[C@H]4CC[C@H](NCCC(F)(F)F)CC4)cc3c2)o1 [Compound 148]', 'pEC50', 7.85);

**Query** Provide pEC50, recorded with DYRK1A kinase (Homo sapiens (Human)), of Cc1nnc(-c2ccc3cnc(NC(=O)[C@H]4CC[C@H](N5CCN(C)CC5)CC4)cc3c2)s1 [Compound 194]
**Result** 8.52

**Query** For DYRK1A kinase (Homo sapiens (Human)), give the measured pEC50 of the entry Cc1ncc(-c2ccc3cnc(NC(=O)[C@H]4CC[C@H](CO)CC4)cc3c2)o1 [Compound 43]
**Result** 8.70

* * *

tested_on: DYRK1A kinase (Homo sapiens (Human), UniProt Q13627)
assay_method_text: DYRK1A kinase assay (Ser/Thr 18 peptide Z-lyte, FRET)
stated_conditions: DYRK1A kinase; method text calls the value IC50
pEC50: −log10 of the molar value.
Respond with True for pEC50 values of 8 and above, False for values below.

Study these solved cases before continuing.
INSERT INTO assay_data (structure_smiles, answer_label) VALUES
  ('Cn1cc(-c2ccc3cnc(NC(=O)[C@H]4CC[C@H](N5CCCC5)CC4)cc3c2)nn1', 'True'),
  ('CCCCN1CCC(C(=O)Nc2cc3cc(-c4cnn(C)c4)ccc3cn2)CC1', 'True'),
  ('Cc1ncc(-c2cc3cc(NC(=O)[C@H]4CC[C@H](N(C)C)CC4)ncc3cc2F)o1', 'True'),
  ('Cc1nnc(-c2ccc3cnc(NC(=O)N4CCC(NCCC(F)(F)F)CC4)cc3c2)s1', 'False'),
  ('Cc1nnc(-c2ccc3cnc(NC(=O)CN4CCOCC4)cc3c2)n1C', 'False'),
  ('Cc1nnc(-c2ccc3cnc(NC(=O)N(C)C4CCN(C)CC4)cc3c2)s1', 'False'),
  ('Cc1ncc(-c2cc(F)c3cnc(NC(=O)[C@H]4CC[C@H](N(C)C)CC4)cc3c2)o1', 'False');

Okay, next one:
**Query** Quick check: does Cc1ncc(-c2ccc3cnc(NC(=O)N4CCn5ccnc5C4)cc3c2)o1 have pEC50 greater than or equal to 8?
**Result** True
